Recorded values, source patent US8367712B2.

target: sproBACE1 (soluble form of human BACE1) (Homo sapiens); construct: sBACE1, corresponding to amino acids 1-454; test: Peptide Hydrolysis Assay (HTRF, EuK-biotin labeled APPsw substrate); settings: 7 nM sproBACE1, 25 nM EuK-biotin APPsw substrate, pH 5.0, 3 hr at 30° C.
Sequence (P56817 22-454): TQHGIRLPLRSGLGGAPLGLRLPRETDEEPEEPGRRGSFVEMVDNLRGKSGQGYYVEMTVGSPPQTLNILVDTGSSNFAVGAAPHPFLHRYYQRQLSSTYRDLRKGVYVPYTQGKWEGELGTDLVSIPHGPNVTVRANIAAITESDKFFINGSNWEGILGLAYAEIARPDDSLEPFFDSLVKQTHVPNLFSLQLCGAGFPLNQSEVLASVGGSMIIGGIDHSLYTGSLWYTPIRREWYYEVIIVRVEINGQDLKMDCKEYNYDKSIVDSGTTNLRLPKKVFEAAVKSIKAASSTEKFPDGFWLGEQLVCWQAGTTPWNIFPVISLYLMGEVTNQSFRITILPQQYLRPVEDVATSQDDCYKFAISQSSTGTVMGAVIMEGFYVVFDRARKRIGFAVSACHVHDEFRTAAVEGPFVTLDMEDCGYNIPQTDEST
assay readout: pIC50
Give bare numbers, as −log10 of the molar value.

Given the compound CC(=O)N[C@@H](Cc1cc(F)cc(OCc2ccncc2)c1)[C@H](O)[C@@H]1NCCN(Cc2ccccc2)C1=O , what is its reported pIC50?
6.73
